target: hNMUR1 (Homo sapiens); test: FLIPR calcium mobilization assay, human NMUR1; format: cell-based; parameters: expressed in transfected cells; host or cells: FLP-In CHO or HEK-293 FLP-In cells (pcDNA5); HEK-293/aeq17 lines (pIRES-puro) were also made; conditions: functional data, human R1
Sequence (Q9HB89 whole entry): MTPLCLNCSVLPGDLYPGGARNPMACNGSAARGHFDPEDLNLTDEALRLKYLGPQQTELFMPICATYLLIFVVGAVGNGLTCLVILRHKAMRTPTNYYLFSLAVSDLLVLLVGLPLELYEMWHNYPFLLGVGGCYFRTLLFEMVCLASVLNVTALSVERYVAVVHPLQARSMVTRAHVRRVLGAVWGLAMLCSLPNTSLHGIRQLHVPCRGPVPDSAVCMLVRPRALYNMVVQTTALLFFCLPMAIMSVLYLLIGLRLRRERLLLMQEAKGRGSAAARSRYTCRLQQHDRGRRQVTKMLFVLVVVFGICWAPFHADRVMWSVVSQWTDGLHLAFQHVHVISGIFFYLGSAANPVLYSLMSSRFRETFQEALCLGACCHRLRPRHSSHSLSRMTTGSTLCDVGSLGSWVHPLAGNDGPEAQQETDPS
measurement name: IC50

Inquiry: Field request: IC50 | item: H-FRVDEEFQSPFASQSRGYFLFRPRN-NH2 [hNMU-25, reference compound]
Reply text: 0.2 nM

---

molecular target: hNMUR2 (Homo sapiens); test: FLIPR calcium mobilization assay, human NMUR2; assay type: cell-based; set-up: expressed in transfected cells; host or cells: FLP-In CHO or HEK-293 FLP-In cells (pcDNA5); HEK-293/aeq17 lines (pcDNA3.1) were also made; details: functional data, human R2
Sequence (Q9GZQ4 whole entry): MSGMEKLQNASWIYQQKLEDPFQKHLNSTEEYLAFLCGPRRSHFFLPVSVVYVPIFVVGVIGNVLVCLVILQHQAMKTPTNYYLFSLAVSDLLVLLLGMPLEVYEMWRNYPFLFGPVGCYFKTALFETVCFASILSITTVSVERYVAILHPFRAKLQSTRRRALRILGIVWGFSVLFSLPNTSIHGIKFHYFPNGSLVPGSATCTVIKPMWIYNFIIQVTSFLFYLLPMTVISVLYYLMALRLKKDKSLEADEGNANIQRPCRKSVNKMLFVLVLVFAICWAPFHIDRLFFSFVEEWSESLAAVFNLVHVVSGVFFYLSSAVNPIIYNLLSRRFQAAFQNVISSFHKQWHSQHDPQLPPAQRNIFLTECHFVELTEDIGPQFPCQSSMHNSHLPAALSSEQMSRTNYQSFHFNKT
measurement name: IC50 (nM)
Give the quantity in nM, number only.

Inquiry: Fill in: IC50 of H-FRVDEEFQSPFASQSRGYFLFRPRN-NH2 [hNMU-25, reference compound] is ___
Reply text: 0.8
